Documented koff across a set of binders
TARGET_OR_SYSTEM: T1, human transferrin receptor (BIAcore, construct not stated) (human, UniProt P02786 89-760)
T1 construct: also called huTfR
T1 sequence (P02786 89-760): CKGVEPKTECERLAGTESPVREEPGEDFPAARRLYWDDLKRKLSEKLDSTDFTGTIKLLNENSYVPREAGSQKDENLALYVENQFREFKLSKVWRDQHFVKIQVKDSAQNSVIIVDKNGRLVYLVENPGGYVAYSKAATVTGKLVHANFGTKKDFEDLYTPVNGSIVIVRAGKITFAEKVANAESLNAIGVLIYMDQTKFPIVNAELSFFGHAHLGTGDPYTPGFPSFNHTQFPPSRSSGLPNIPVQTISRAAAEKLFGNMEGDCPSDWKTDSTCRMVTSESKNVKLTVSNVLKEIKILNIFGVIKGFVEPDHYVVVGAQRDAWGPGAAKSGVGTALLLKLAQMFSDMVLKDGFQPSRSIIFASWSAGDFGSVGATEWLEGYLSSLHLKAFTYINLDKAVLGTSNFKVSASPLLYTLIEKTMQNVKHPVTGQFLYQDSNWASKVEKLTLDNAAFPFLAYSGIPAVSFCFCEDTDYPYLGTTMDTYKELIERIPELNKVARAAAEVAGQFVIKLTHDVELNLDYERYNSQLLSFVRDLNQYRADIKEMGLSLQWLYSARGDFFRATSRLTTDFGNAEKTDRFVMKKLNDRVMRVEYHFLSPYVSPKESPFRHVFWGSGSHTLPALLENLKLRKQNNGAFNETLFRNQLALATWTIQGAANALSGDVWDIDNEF
PROTOCOL_DETAILS: SPR, 25 C
Value and unit, in that order.

Solved cases below.
clone 299 VH 17 / VL 9-NYA (antibody, V domains shown) VH: QQLQESGPGLVKPSETLSLTCTVSGFSLSSYAMSWVRQPPGKGLEWIGYIWSGGSTDYNPSLKSRVTISKDTSKNQVSLKLSSVTAADTAVYYCARRYGTSYPDYGDANGFDPWGPGTLVTVSS VL: AIQLTQSPSSLSASVGDRVTITCRASQSISSYLAWYQQKPGKAPKLLIYRASTLASGVPSRFSGSGSGTDFTLTISSLQPEDFATYYCQQNYASSNVDNTFGGGTKVEIK	0.000934 s⁻¹
clone 299 VH 15 / VL 0 (rb) (antibody, V domains shown) VH: QQLQESGPGLVKPSETLSLTCTVSGFSLSSYAMSWVRQPPGKGLEWIGYIWSGGSTDYNPSLKSRVTISVDTSKNQVSLKLSSVTAADTAVYYCARRYGTSYPDYGDANGFDPWGQGTLVTVSS VL: AYDMTQTPASVEVAVGGTVTIKCQASQSISSYLSWYQQKPGQRPKLLIYRASTLASGVSSRFKGSGSGTQFTLTISGVECADAATYYCQQCYSSSNVDNTFGGGTEVVVK	0.000763 s⁻¹

Shifting focus to the binder that follows.
Query string: State the recorded koff for this entry: clone 299 VH 17 / VL 0 (rb) (antibody, V domains shown) VH: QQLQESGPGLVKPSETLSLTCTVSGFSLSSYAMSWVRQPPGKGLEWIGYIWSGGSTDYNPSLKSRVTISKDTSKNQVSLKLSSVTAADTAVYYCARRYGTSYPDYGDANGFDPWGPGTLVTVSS VL: AYDMTQTPASVEVAVGGTVTIKCQASQSISSYLSWYQQKPGQRPKLLIYRASTLASGVSSRFKGSGSGTQFTLTISGVECADAATYYCQQCYSSSNVDNTFGGGTEVVVK
Result string: 0.000413 s⁻¹
